Origin of the recorded values: paper PMC6839509

- Assayed system: human recombinant cathepsin S (Homo sapiens)
- Construct: with a 100 nM final concentration of each active cathepsin for 30 min; made in house
- Sequence (P25774 115-331): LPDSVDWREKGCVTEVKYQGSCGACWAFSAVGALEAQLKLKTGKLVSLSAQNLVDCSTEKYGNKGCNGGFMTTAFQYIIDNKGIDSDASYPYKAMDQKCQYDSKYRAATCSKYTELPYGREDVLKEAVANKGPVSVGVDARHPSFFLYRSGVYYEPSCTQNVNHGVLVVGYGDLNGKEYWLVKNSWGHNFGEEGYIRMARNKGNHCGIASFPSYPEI
- Method: Substrate hydrolysis kinetics (kcat, KM, kcat/KM) of ACC-labeled substrates
- Assay type: biochemical
- Condition summary: cathepsin S 150 nM; pH 5.5, 37 °C; Michaelis–Menten; average of at least triplicate, S.D. below 15%
Square brackets hold non-standard residues; d marks the D form. * marks the point of attachment. Phe(4-Cl) = N[C@@H](Cc1ccc(Cl)cc1)C(=O)O; ACC = NC(=O)Cc1cc(=O)oc2cc(N*)ccc12; hPhe = N[C@@H](CCc1ccccc1)C(=O)O; Cha = N[C@@H](CC1CCCCC1)C(=O)O; hSer = N[C@@H](CCO)C(=O)O; OBn = c1ccc(CO*)cc1; Bn = c1ccc(C*)cc1
Attribute measured: kcat/KM Cat S (M⁻¹ s⁻¹)
Give the value, in units of M⁻¹ s⁻¹, as a plain number.

Worked cases, kcat/KM Cat S given:
| Substance | kcat/KM Cat S [M⁻¹ s⁻¹] |
| --- | --- |
| Ac-[hPhe]LE(OBn)R-{ACC} (SMILES CC(=O)N[C@@H](CCc1ccccc1)C(=O)N[C@@H](CC(C)C)C(=O)N[C@@H](CCC(=O)OCc1ccccc1)C(=O)N[C@@H](CCCNC(=N)N)C(=O)Nc1ccc2c(CC(N)=O)cc(=O)oc2c1) [ACC-labeled tetrapeptide substrate] | 37 |
| Ac-[Cha]LE(OBn)R-{ACC} (SMILES CC(=O)N[C@@H](CC1CCCCC1)C(=O)N[C@@H](CC(C)C)C(=O)N[C@@H](CCC(=O)OCc1ccccc1)C(=O)N[C@@H](CCCNC(=N)N)C(=O)Nc1ccc2c(CC(N)=O)cc(=O)oc2c1) | 40 |

kcat/KM Cat S measured on Ac-[Phe(4-Cl)]L[hSer](Bn)R-{ACC} (SMILES CC(=O)N[C@@H](Cc1ccc(Cl)cc1)C(=O)N[C@@H](CC(C)C)C(=O)N[C@@H](CCOCc1ccccc1)C(=O)N[C@@H](CCCNC(=N)N)C(=O)Nc1ccc2c(CC(N)=O)cc(=O)oc2c1) [ACC-labeled tetrapeptide substrate] = 50
